Test system: CEM cells HIV-1 protection, formazan growth assay
Experiment Notes: NCI AIDS Antiviral Assay
Assay Setup: measured here: growth of uninfected CEM cells
Where a SMILES comes first, the peptide text is derived from it. Bridges are numbered along the chain shown (N, C = ends). Roman numbers before positions name the chains, in order.
Value Kind: IC50

// query IC50 lookup needed for "C/C(CC(O)(C(F)(F)F)C(F)(F)F)=N\NC(N)=O" , thanks.
// result > 200 µM

// query Recorded IC50 of "CCOC(=O)/C(F)=C/c1ccc(C#N)cc1" , please.
// result > 33.1 µM

// query What value of measured IC50 is listed for NC(CSSCC(N)C(=O)NC(Cc1ccc(O)cc1)C(=O)O)C(=O)NC(Cc1ccc(O)cc1)C(=O)O (stereo not drawn) (I: H-Cys-Tyr-OH / II: H-Cys-Tyr-OH; disulfide I:1-II:1; configuration not given here) ?
// result > 200 µM

// query Returns the measured IC50 for the input compound. Input: "COc1cc(NC(=O)c2ccc(NC(=O)c3ccc(N)cc3)cc2)c(OC)cc1N=Nc1ccc(N=Nc2ccc3cc(S(=O)(=O)O)cc(S(=O)(=O)O)c3c2)c(C)c1"
// result > 100 µM

// query Quick check: IC50 of "CN1CCN(CC(=O)N2CCCn3c2nc2ccccc2c3=O)CC1" ?
// result > 200 µM

// query // IC50 lookup, key: "COc1c2cc([N+](=O)[O-])cc1CNC(=O)CN1CCOCCOCCN(CCOCCOCC1)CC(=O)NC2"
// result > 100 µM

// query Which IC50 value belongs to Cc1cn(C2CCC(COP(=O)(OCC(=O)c3ccccc3)OCC(=O)c3ccccc3)O2)c(=O)[nH]c1=O (stereo not given) ?
// result > 200 µM

// query Which value of IC50 has been reported for "c1cc2c3c(c1)ncn3C[C@@H]1CCCN1C2" in the records?
// result > 295 µM

// query Fill in: IC50 of "Cc1cccc(C)c1NC(=O)CCc1nnc2s/c(=C\c3ccc(N(C)C)cc3)c(=O)n12" is ___
// result > 1.7 µM

// query Endpoint output: IC50 of "O=C(O)CCCCCCC[n+]1ccccc1" . Value?
// result > 200 µM

// query For the compound shown here, "O=C1OC(c2ccccc2)=N/C1=C\c1ccc(Br)cc1" , give the reported IC50.
// result > 4.37 µM

// query Would you mind telling me what IC50 value was observed for CC(C)CC(N)C(=O)NC(CC(=O)O)C(=O)NC(CCCCN)C(=O)NC(C)C(=O)NC(CO)C(=O)NC(Cc1ccc(O)cc1)C(=O)NC(CO)C(=O)NC(C(=O)NC(CC(N)=O)C(=O)NC(Cc1cnc[nH]1)C(=O)O)C(C)O (stereo not given) (H-LDKASYSTNH-OH; configuration not given here) ?
// result > 21.9 µM

// query For C=CCc1cc(OC)c2c(c1)C(OC(C)=O)CC(c1ccc(OC)c(OC)c1)O2 (stereo not given) , what is its reported IC50?
// result > 46.8 µM

// query Value lookup for IC50; key = "O=C1CCC2(CC1)SCCCS2"
// result > 339 µM

// query Would you mind telling me what IC50 value was observed for O=C1CCCC1C(O)(C(F)(F)Cl)C(F)(F)Cl (stereo not given) ?
// result > 200 µM

// query Returns the measured IC50 for the input compound. Input: O=C(Nc1ccccc1SC(/C=C/NNC1=NC(c2ccccc2)C(c2ccccc2)=NN1)c1ccccc1)c1ccc(Cl)cc1Cl (stereo not given)
// result > 10.7 µM

// query Request the reported IC50 associated with N#CC(C(=O)CCC(=O)C(C#N)c1ccccc1)c1ccccc1 (stereo not given)
// result > 398 µM

// query Fill blank: measured IC50 of the compound O=C(NNC(c1ccccc1)C(F)(F)F)c1ccncc1 (stereo not given) is ____.
// result > 200 µM

// query Entry "COc1cc(OS(=O)(=O)O)c2c(c1)cc(O)c1c(=O)cc(C)oc12" has what IC50?
// result > 151 µM

// query Need IC50 of "CCCC/C=C(/CCCNCCc1ccccc1)[Si](C)(C)C" , thanks.
// result > 81.3 µM

###

Test system: CEM cells HIV-1 protection, formazan growth assay
Experiment Notes: NCI AIDS Antiviral Assay
Assay Setup: measured here: growth of uninfected CEM cells
For each of the compounds below, state its IC50.
Report as a plain number; the unit µM is understood.

// query Suppose we examine the compound "N#Cc1c(Cl)c2cc([N+](=O)[O-])ccc2n2c1nc1ccccc12" ; what IC50 value has been reported?
// result 0.813

// query Dear colleague, I am looking for the recorded IC50 of the following compound: CC1=CCS(=O)(=O)C1C(O)C1=C(C)CCCC1(C)C (stereo not drawn)
// result 40.7

// query I would be grateful if you could share the reported IC50 for "O=C1c2ccc3cc(CCl)cc(O)c3c2C(=O)c2cccc(O)c21" .
// result 5.25

// query // returns reported IC50 for input "O=C(c1ccc(Cl)cc1)N(C(=S)N1CCN(c2ccccn2)CC1)C1CCCCC1"
// result 8.51

// query // IC50 lookup, key: "CC(C)=CCOc1cc(NC(=S)c2ccoc2C)ccc1Cl"
// result 30.2

// query What value of IC50 has been reported for the following compound? "COC(=O)CC=C(c1cc(Cl)c(OC)c(C(=O)OC)c1)c1cc(Cl)c(OC)c(C(=O)OC)c1"
// result 41.7

// query Look up IC50 for this compound: "CCOC(=O)C1=NN(c2ccccc2)C(=O)/C1=C\n1c(=S)sc2ccccc21"
// result 51.3

// query # query: IC50 of entry CC1C2(C)OC(=N)C(C#N)(C(C)O2)C1(C#N)C#N (stereo not drawn)
// result 9.77

###

Exercise: state measured pIC50 for each of the compounds provided.
System: CEM cells HIV-1 protection, formazan growth assay
Experiment Notes: NCI AIDS Antiviral Assay
Assay Setup: measured here: growth of uninfected CEM cells
# pIC50: negative log10 of molar concentration; output just the value

// query Item: "Oc1ccc(/C=C\c2cnccn2)cc1" Test system: CEM cells HIV-1 protection, formazan growth assay Read-out: pIC50 Value: ?
// result 4.47

// query Param readout = pIC50; param system = CEM cells HIV-1 protection, formazan growth assay; param query = COc1cc2c(cc1OC)C13CC[N+]4(C)CC5CCOC6CCN2C1C6C5CC34 (stereo not given) ; response: value
// result 4.18

// query Please state recorded pIC50 (tested on CEM cells HIV-1 protection, formazan growth assay) of "CCCCNc1nc2ccccc2c2c1ncn2CC(C)C"
// result 4.70

###

Provide the reported IC50 of each item.
System: CEM cells HIV-1 protection, formazan growth assay
Experiment Notes: NCI AIDS Antiviral Assay
Assay Setup: measured here: growth of uninfected CEM cells
Report the figure in µM without appending any unit label.

// query Which IC50 is reported for this compound? "COc1ccc2c(c1)OC[C@@H]1c3cc(NS(=O)(=O)c4ccccc4)cc(OCc4ccccc4)c3O[C@H]21"
// result 13.5

// query Fill in: IC50 of "Cc1ccc([Si](O)(c2ccc(C)cc2)c2ccc(C)cc2)cc1" is ___
// result 12

// query So what does the record say about IC50 for "O=c1[nH]nc2ccc(n[nH]c1=O)c1ccccc21" ?
// result 7.41

// query Can you look up the measured IC50 of CCC(C)C(=O)c1c(O)c(CC2OC2(C)C)c(O)c2c(C(O)CC)cc(=O)oc12 (configuration not stated) for me?
// result 5.62

// query IC50 value for entry "Cc1cc(C)c(C(=O)O)c(SSc2cc(C)cc(C)c2C(=O)O)c1"
// result 123

// query IC50 for CC1=C[C@H]2O[C@@H]3C[C@H]4OC(=O)/C=C\C=C\[C@H]([C@@H](C)O)OC[C@H](O)[C@@]5(C)O[C@@H]5C(=O)OC[C@@]2(C[C@H]1O)[C@]4(C)C31CO1 (some centres not stated) ?
// result 0.00575

// query Recorded IC50 of "Cc1nn2c(N)cc(=O)nc2nc1/C=C/c1ccc(N(C)C)cc1" , please.
// result 4.27

// query What value of IC50 has been reported for the following compound? O=C1C2C(C(=O)N1c1ccccc1)C(c1ccccc1)N(c1ccccc1)C2c1ccccc1 (configuration not stated)
// result 15.8

// query Please give the measured IC50 for this compound: "CCOC(=O)/C(C(=O)c1ccc[nH]1)=C1/CCCN1C"
// result 129

// query Which IC50 value is on record for "O=C(NNC(=S)Nc1ccccc1)c1ccccc1Nc1ccccc1C(=O)NNC(=S)Nc1ccccc1" ?
// result 30.2

// query # lookup: IC50 of "COc1ccc(S(=O)c2ccc(OC)cc2)cc1"
// result 490

// query State the recorded IC50 for this entry: "Nc1c2ccccc2nc2c1ccc1ncccc12"
// result 6.46

// query Which IC50 is reported for this compound? COCCCCCCCCCCCC(=O)OCC1OC(n2cc(C)c(=O)[nH]c2=O)CC1F (configuration not stated)
// result 0.2
